# Tested on: multi-resistant Dd2 strain of P. falciparum
# test: SYBR green I fluorescence-based antiplasmodial assay, PfDd2
# Type: cell-based
# assaySetup: Plasmodium falciparum, DD2; isolated compounds and reference drugs (Table 3); 72 h incubation; read-out: EC50 (μM) PfDd2
For each of the compounds below, state its EC50.
One number for each entry, in µM.

Examples from the recorded data:
{"compound": "O=c1cc(-c2ccc(O)cc2)oc2cc(O)cc(O)c12", "EC50 (µM)": 16.4}
{"compound": "C[C@@H]1CC[C@H]2[C@@H](C)C(=O)O[C@@H]3O[C@@]4(C)CC[C@@H]1[C@]32OO4 [Artemisinin, reference compound]", "EC50 (µM)": 0.018}

Now for another entry.
Input: Quick one: EC50 of "COc1c(O)cc2c(=O)oc3c(OC)c(O)cc4c(=O)oc1c2c34" ?
Output: 1.36

###

# Test system: multi-resistant Dd2 strain of P. falciparum
# test: SYBR green I fluorescence-based antiplasmodial assay, PfDd2
# Type: cell-based
# assaySetup: Plasmodium falciparum, DD2, 72 h, read-out: EC50 (μM) PfDd2
recordedMetric: EC50 (µM)
Give bare numbers, in µM.

Input: For the record CCN(CC)CCCC(C)Nc1ccnc2cc(Cl)ccc12 (centres unmarked) [Chloroquine, reference compound] , what value of EC50 is listed for multi-resistant Dd2 strain of P. falciparum?
Output: 0.449

###

# test: Resazurin-based cytotoxicity assay, Raw 264.7 cells
# assaySetup: mouse
recordedMetric: CC50 at 48 h

Fill in CC50 at 48 h for each of the 2 compounds listed.
1. O=c1cc(-c2ccc(O)cc2)oc2cc(O)cc(O)c12
2. COc1c(O)cc2c(=O)oc3c(OC)c(O)cc4c(=O)oc1c2c34

Output:
1. > 185 µM
2. > 152 µM

###

# test: in vitro
# assaySetup: African green monkey
Consider the following molecules; for each one, report its CC50 at 48 h.

{"molecule": "O=c1cc(-c2ccc(O)cc2)oc2cc(O)cc(O)c12 [Compound 1, apigenin]", "CC50 at 48 h": "> 185 µM"}

Next molecule, please.
Input: Sample COc1c(O)cc2c(=O)oc3c(OC)c(O)cc4c(=O)oc1c2c34 [Compound 6, 3,3′-O-dimethylellagic acid] — what was its CC50 at 48 h?
Output: > 152 µM

From: paper PMC8243547
